- measured.on: UniProt:Q924U1
- Sequence (Q924U1 whole entry): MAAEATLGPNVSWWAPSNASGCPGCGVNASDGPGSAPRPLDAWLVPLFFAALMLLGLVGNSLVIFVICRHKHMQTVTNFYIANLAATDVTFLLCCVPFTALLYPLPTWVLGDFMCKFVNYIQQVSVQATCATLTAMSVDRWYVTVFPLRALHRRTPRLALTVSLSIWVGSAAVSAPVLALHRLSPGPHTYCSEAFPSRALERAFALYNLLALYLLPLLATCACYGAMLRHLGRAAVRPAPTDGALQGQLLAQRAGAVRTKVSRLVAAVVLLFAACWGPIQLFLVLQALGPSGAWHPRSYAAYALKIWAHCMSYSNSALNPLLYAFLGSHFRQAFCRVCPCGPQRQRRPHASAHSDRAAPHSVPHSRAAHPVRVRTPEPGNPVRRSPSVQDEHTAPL
- procedure.details: Agonist activity at rat KISS1R expressed in CHO/dhfr cells assessed as increase in intracellular Ca2+ levels measured for 180 secs by Fluo 3-AM dye based FLIPR assay
Where a SMILES comes first, the peptide text is derived from it. [ ]: non-standard residue; d: D form. Phe(2-F) = N[C@@H](Cc1ccccc1F)C(=O)O; Arg(Me) = CNC(=N)NCCC[C@H](N)C(=O)O; NMeA = CN[C@@H](C)C(=O)O; azaGly = NNC(=O)O
Reported pEC50 is given for each of the following molecules.
# pEC50 = -log10(concentration in molar units)

[in] In one line, give reported pEC50 of the entry CNC(=N)NCCC[C@H](NC(=O)[C@H](CC(C)C)NC(=O)NNC(=O)[C@H](Cc1ccccc1)NC(=O)[C@@H](NC(=O)[C@H](CC(N)=O)NC(=O)[C@H](CCCCN)NC(=O)[C@@H](Cc1ccc(O)cc1)NC(C)=O)[C@@H](C)O)C(=O)N[C@@H](Cc1c[nH]c2ccccc12)C(N)=O .
[out] 8.17

[in] Output measured pEC50 for this item: CNC(=N)NCCC[C@H](NC(=O)[C@H](CC(C)C)NC(=O)NNC(=O)[C@H](Cc1ccccc1)NC(=O)[C@@H](NC(=O)[C@H](CC(N)=O)NC(=O)[C@H](C)N(C)C(=O)[C@@H](Cc1ccc(O)cc1)NC(C)=O)[C@@H](C)O)C(=O)N[C@@H](Cc1c[nH]c2ccccc12)C(N)=O (Ac-[dY][NMeA]NTF[azaGly]L[Arg(Me)]W-NH2)
[out] 7.37

[in] Assign pEC50 to the following record: CNC(=N)NCCC[C@H](NC(=O)[C@H](CC(C)C)NC(=O)NNC(=O)[C@H](Cc1ccccc1)NC(=O)[C@@H](NC(=O)[C@H](CC(N)=O)NC(=O)[C@H](CCC(=O)O)NC(=O)[C@@H](Cc1ccc(O)cc1)NC(C)=O)[C@@H](C)O)C(=O)N[C@@H](Cc1c[nH]c2ccccc12)C(N)=O
[out] 7.96

[in] Tell me its pEC50 given CNC(=N)NCCC[C@H](NC(=O)[C@H](CC(C)C)NC(=O)NNC(=O)[C@H](Cc1ccccc1F)NC(=O)[C@@H](NC(=O)[C@H](CC(N)=O)NC(=O)[C@@H](Cc1c[nH]c2ccccc12)NC(=O)[C@@H](Cc1ccc(O)cc1)NC(C)=O)[C@@H](C)O)C(=O)N[C@@H](Cc1c[nH]c2ccccc12)C(N)=O (Ac-[dY][dW]NT[Phe(2-F)][azaGly]L[Arg(Me)]W-NH2) as the entry.
[out] 8.74

[in] Please give the documented pEC50 of CNC(=N)NCCC[C@H](NC(=O)[C@H](CC(C)C)NC(=O)NNC(=O)[C@H](Cc1ccccc1)NC(=O)[C@@H](NC(=O)[C@H](CC(N)=O)NC(=O)[C@@H](CC(C)C)NC(=O)[C@@H](Cc1ccc(O)cc1)NC(C)=O)[C@@H](C)O)C(=O)N[C@@H](Cc1c[nH]c2ccccc12)C(N)=O
[out] 7.92

----------
- measured.on: KiSS-1 receptor (Homo sapiens, UniProt Q969F8)
- Sequence (Q969F8 whole entry): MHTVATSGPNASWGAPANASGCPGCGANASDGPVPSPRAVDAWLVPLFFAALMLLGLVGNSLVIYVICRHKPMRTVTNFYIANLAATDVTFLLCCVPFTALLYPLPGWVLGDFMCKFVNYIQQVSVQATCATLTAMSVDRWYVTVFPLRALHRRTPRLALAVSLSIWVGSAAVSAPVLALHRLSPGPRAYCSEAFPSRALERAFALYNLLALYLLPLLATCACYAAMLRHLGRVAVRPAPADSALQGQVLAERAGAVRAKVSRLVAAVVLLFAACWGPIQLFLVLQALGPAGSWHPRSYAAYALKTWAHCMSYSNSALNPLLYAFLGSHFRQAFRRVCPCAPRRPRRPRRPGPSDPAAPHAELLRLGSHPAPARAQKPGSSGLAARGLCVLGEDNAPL
- procedure.details: Agonist activity at human KISS1R expressed in CHO/dhfr cells assessed as increase in intracellular Ca2+ levels measured for 180 secs by Fluo 3-AM dye based FLIPR assay
Where a SMILES comes first, the peptide text is derived from it. [ ]: non-standard residue; d: D form. Phe(2-F) = N[C@@H](Cc1ccccc1F)C(=O)O; Arg(Me) = CNC(=N)NCCC[C@H](N)C(=O)O; Pip = O=C(O)[C@@H]1CCCCN1; azaGly = NNC(=O)O
pEC50 by entry:
When answering, recall that pEC50 equals minus log10 of the concentration in mol/L, and write that number alone.

Recorded pEC50, per entry:
compound	pEC50
CNC(=N)NCCC[C@H](NC(=O)[C@H](CC(C)C)NC(=O)NNC(=O)[C@H](Cc1ccccc1)NC(=O)[C@@H](NC(=O)[C@H](CC(N)=O)NC(=O)[C@H](CCC(=O)O)NC(=O)[C@@H](Cc1ccc(O)cc1)NC(C)=O)[C@@H](C)O)C(=O)N[C@@H](Cc1c[nH]c2ccccc12)C(N)=O	8.55
CNC(=N)NCCC[C@H](NC(=O)[C@H](CC(C)C)NC(=O)NNC(=O)[C@H](Cc1ccccc1)NC(=O)[C@@H](NC(=O)[C@H](CC(N)=O)NC(=O)[C@@H]1CCCCN1C(=O)[C@@H](Cc1ccc(O)cc1)NC(C)=O)[C@@H](C)O)C(=O)N[C@@H](Cc1c[nH]c2ccccc12)C(N)=O (Ac-[dY][Pip]NTF[azaGly]L[Arg(Me)]W-NH2)	8.55

Let us move to another entry and its pEC50.
[in] // fetch pEC50 given entry CNC(=N)NCCC[C@H](NC(=O)[C@H](CC(C)C)NC(=O)NNC(=O)[C@H](Cc1ccccc1F)NC(=O)[C@@H](NC(=O)[C@H](CC(N)=O)NC(=O)[C@@H](Cc1c[nH]c2ccccc12)NC(=O)[C@@H](Cc1ccc(O)cc1)NC(C)=O)[C@@H](C)O)C(=O)N[C@@H](Cc1c[nH]c2ccccc12)C(N)=O (Ac-[dY][dW]NT[Phe(2-F)][azaGly]L[Arg(Me)]W-NH2)
[out] 9.19
